We begin with a simple list: items and their reported pKd.
Biological target: T1, EsCas13d, nuclease-dead (Eubacterium siraeum, UniProt B0MS50, R295A;H300A;R849A;H854A)
T1 sequence: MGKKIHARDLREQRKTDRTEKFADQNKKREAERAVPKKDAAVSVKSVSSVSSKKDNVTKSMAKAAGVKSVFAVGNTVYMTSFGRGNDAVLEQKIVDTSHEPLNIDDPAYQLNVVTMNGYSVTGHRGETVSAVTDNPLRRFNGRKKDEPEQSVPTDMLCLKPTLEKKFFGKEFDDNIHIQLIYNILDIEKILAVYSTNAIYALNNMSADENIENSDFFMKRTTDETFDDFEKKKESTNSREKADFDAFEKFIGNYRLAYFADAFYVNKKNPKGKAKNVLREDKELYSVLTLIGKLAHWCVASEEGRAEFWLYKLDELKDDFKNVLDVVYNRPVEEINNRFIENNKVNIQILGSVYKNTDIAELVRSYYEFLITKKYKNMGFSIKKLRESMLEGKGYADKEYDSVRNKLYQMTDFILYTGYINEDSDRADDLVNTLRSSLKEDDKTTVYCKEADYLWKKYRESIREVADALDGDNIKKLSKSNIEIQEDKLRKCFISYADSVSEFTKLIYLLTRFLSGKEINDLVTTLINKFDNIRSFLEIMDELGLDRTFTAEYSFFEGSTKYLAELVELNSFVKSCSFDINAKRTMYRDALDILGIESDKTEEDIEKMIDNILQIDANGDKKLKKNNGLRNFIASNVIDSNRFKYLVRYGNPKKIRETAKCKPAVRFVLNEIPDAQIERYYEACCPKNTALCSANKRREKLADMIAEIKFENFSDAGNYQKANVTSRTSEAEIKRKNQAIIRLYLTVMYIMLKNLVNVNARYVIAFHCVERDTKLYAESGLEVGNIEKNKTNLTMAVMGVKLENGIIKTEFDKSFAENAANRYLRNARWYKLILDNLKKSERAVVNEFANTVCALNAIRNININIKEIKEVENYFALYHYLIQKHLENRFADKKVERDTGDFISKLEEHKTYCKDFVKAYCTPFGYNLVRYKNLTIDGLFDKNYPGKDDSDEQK
Assay: crRNA (strand 1, pre-loaded); Mg2+; 40 mM Tris-HCl pH 7.5, 150 mM NaCl, 6 mM MgCl2, 1 mM DTT, 0.1% Tween-20, 0.2 mg/ml BSA; 25 C; 10 min per concentration, then washed
Settings: tags: His6-TwinStrep-SUMO cleaved; N-terminal SNAP kept (SNAP-Surface 488); label: 3' end held by stalled T7 RNA polymerase
pKd: −log10 of the molar value.
property-label: pKd

target 1 insC 3' of 12,insG 3' of 2 (mixed) RNA 1: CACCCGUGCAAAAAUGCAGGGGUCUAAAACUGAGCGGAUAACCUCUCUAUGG RNA 2: GGGAAUGGAUCCACAUCUACGAAUUCGUACCAUAGAGAGGCUUAUCCGCUCGACCGAGAUCGGAAGAGCACACGU ... 8.01
target 2 MT 5'PFS GUC 3'PFS CAA (mixed) RNA 1: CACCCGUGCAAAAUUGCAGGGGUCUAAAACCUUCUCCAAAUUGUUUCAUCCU RNA 2: GGGAAUGGAUCCACAUCUACGAAUUCGUCAGGAUGAAACAAUUUGGAGAAGCAAAGAUCGGAAGAGCACACGU ... 8.01
target 3 G3C,U21G (mixed) RNA 1: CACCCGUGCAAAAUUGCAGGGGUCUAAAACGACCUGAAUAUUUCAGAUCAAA RNA 2: GGGAAUGGAUCCACAUCUACGAAUUCGUUUGUGAUCUGAAAUAUUCAGCUCUGCAGAUCGGAAGAGCACACGU ... 7.15
target 2 MT 5'PFS GCC 3'PFS AGC (mixed) RNA 1: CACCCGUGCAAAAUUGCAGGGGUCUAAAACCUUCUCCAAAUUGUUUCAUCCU RNA 2: GGGAAUGGAUCCACAUCUACGAAUUCGCCAGGAUGAAACAAUUUGGAGAAGAGCAGAUCGGAAGAGCACACGU ... 7.98
target 1 insA 3' of 21,insC 3' of 13 (mixed) RNA 1: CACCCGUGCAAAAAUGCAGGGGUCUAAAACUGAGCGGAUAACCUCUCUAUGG RNA 2: GGGAAUGGAUCCACAUCUACGAAUUCGUACCAAUAGAGAGCGUUAUCCGCUCACCGAGAUCGGAAGAGCACACGU ... 7.49
target 3 del1 (mixed) RNA 1: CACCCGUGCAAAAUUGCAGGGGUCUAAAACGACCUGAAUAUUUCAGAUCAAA RNA 2: GGGAAUGGAUCCACAUCUACGAAUUCGUUUUUGAUCUGAAAUAUUCAGGUUGCAGAUCGGAAGAGCACACGU ... 7.57
target 1 C7A,A9U (mixed) RNA 1: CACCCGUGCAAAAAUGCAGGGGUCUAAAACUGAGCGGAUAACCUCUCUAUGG RNA 2: GGGAAUGGAUCCACAUCUACGAAUUCGUACCAUAGAGAGGUUUUACGCUCACCGAGAUCGGAAGAGCACACGU ... 8.12
target 2 MT 5'PFS UCA 3'PFS UAU (mixed) RNA 1: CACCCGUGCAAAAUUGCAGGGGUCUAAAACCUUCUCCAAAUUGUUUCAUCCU RNA 2: GGGAAUGGAUCCACAUCUACGAAUUCUCAAGGAUGAAACAAUUUGGAGAAGUAUAGAUCGGAAGAGCACACGU ... 8.29
target 1 insA 3' of 5,insU 3' of 1 (mixed) RNA 1: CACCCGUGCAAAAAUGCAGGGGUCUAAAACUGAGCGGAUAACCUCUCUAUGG RNA 2: GGGAAUGGAUCCACAUCUACGAAUUCGUACCAUAGAGAGGUUAUCCGACUCAUCCGAGAUCGGAAGAGCACACGU ... 8.02
target 2 MT 5'PFS AUU 3'PFS AGA (mixed) RNA 1: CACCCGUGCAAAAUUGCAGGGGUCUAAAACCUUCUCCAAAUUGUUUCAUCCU RNA 2: GGGAAUGGAUCCACAUCUACGAAUUCAUUAGGAUGAAACAAUUUGGAGAAGAGAAGAUCGGAAGAGCACACGU ... 8.27
target 1 insA 3' of 22,insC 3' of 10 (mixed) RNA 1: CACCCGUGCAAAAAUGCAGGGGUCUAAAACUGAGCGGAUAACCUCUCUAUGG RNA 2: GGGAAUGGAUCCACAUCUACGAAUUCGUACACAUAGAGAGGUUCAUCCGCUCACCGAGAUCGGAAGAGCACACGU ... 7.54
target 1 insA 3' of 11,insU 3' of 2 (mixed) RNA 1: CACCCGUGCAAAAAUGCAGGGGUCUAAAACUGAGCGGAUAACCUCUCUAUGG RNA 2: GGGAAUGGAUCCACAUCUACGAAUUCGUACCAUAGAGAGGUAUAUCCGCUCUACCGAGAUCGGAAGAGCACACGU ... 7.65
target 1 A9G,C22U (mixed) RNA 1: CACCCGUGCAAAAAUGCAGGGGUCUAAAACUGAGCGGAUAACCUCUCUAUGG RNA 2: GGGAAUGGAUCCACAUCUACGAAUUCGUAUCAUAGAGAGGUUGUCCGCUCACCGAGAUCGGAAGAGCACACGU ... 7.56
target 1 insA 3' of 10,insU 3' of 6 (mixed) RNA 1: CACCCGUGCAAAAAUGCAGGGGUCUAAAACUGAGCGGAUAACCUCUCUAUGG RNA 2: GGGAAUGGAUCCACAUCUACGAAUUCGUACCAUAGAGAGGUUAAUCCUGCUCACCGAGAUCGGAAGAGCACACGU ... 7.86
